- Target Entity: Neutral ceramidase (Homo sapiens, UniProt Q9NR71)
- Sequence (Q9NR71 whole entry): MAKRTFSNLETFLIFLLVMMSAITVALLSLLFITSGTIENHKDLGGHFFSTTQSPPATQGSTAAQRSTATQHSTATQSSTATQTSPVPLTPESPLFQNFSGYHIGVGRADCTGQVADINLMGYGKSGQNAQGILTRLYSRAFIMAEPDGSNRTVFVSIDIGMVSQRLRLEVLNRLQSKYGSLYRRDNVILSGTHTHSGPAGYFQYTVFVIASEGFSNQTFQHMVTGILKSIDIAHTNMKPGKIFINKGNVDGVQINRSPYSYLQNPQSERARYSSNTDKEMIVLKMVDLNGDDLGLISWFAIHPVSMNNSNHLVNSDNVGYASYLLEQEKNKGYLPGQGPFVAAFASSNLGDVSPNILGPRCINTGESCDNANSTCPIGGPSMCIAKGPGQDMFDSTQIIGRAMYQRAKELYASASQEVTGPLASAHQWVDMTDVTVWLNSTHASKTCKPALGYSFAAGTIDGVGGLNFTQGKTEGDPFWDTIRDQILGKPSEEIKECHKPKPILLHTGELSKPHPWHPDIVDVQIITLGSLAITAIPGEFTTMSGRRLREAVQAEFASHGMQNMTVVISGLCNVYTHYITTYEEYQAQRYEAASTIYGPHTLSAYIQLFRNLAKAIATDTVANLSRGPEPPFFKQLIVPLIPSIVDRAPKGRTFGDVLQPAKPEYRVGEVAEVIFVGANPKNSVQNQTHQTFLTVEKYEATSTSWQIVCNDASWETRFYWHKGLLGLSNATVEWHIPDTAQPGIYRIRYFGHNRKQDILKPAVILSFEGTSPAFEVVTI
- Assay Method Text: Non-competitive inhibition of recombinant ASAH2 stably over expressed in human A-375 cell lysate using RBM14C24 as substrate
Listing of recorded Ki by entry.
Write the number in µM without appending the unit.

{"columns": ["Structure As Smiles", "Target Entity", "Reading Unit", "Ki"],
 "data": [
  ["CCCCCCCCCCCC/C=C/[C@@H](O)[C@@H](C)NC(=O)c1ccc(OCCCOCOC)cc1", "Neutral ceramidase (Homo sapiens, UniProt Q9NR71)", "µM", 5.4]
]}

# input for lookup
Record CCCCCCCCCCCC/C=C/[C@@H](O)[C@@H](C)NC(=O)c1ccc(CCCCCCC)cc1 , field Ki: 0.8

---

Listing of recorded Ki by entry.
- Target Entity: Alkaline ceramidase 3 (Mus musculus)
- Sequence (Q9D099 whole entry): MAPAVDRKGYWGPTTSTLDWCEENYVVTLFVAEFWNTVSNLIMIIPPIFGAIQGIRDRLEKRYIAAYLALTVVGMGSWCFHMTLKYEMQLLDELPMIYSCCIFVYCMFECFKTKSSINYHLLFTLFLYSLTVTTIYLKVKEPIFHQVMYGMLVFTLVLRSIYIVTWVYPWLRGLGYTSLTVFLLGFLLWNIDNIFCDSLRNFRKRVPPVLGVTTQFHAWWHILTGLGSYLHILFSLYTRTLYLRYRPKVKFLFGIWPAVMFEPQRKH
- Assay Method Text: Non-competitive inhibition of ACER3 in ASAH2-null mouse embryonic fibroblast lysate using RBM14C16 as substrate
Write the number in µM without appending the unit.

// molecule CCCCCCCCCCCC/C=C/[C@@H](O)[C@@H](C)NC(=O)c1ccc(OCCCOCOC)cc1 , assay Alkaline ceramidase 3 (Mus musculus), Ki value: 25.5

// molecule CCCCCCCCCCCC/C=C/[C@@H](O)[C@@H](C)NC(=O)c1ccc(OCCCCOCOC)cc1 , assay Alkaline ceramidase 3 (Mus musculus), Ki value: 34.4

---

- Target Entity: Alkaline ceramidase 3 (Mus musculus) (UniProt Q9D099)
- Sequence (Q9D099 whole entry): as the sequence (Q9D099 whole entry) above
- Assay Method Text: Inhibition of ACER3 in ASAH2-null mouse intact embryonic fibroblast using RBM14C16 fluorogenic substrate measured at pH 9 for 3 hrs by fluorescence spectrophotometry
- Assay Conditions: MEF
The source made the active and inactive calls. No cut-off for these calls is given here.
Give your call using only these classes: true (1) for active, false (0) for inactive

Answered cases to consult:
{"columns": ["Structure As Smiles", "Assigned Category"],
 "data": [
  ["CCCCCCCCCCCC/C=C/[C@@H](O)[C@@H](C)NC(=O)c1ccc(CCCCCCC)cc1", "false (0)"],
  ["CCCCCCCCCCCC/C=C/[C@@H](O)[C@@H](C)NC(=O)c1ccc(OCCCCOCOC)cc1", "true (1)"],
  ["CCCCCCCCCCCC/C=C/[C@@H](O)[C@@H](C)NC(=O)c1ccc(OCCCOCOC)cc1", "true (1)"]
]}

Shifting focus to the compound that follows.
stdin: What did the test return for CCCCCCCCCCCC/C=C/[C@@H](O)[C@@H](C)NC(=O)CCCCCCC ?
stdout: false (0)
